# Method: soluble fraction after stress (log2 fold change); higher = more stays soluble; pooled small domains, quantitative proteomics;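 note: 20 min heating vs room temperature control held 20 min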
# Cond: stress: 75 degC
Outcome Measure: soluble fraction (log2)
Answer as a number with no unit attached.

[[record]]
sequence_record = "HMGNIALAIARFREMIAEDPNLQPVRLHLAMALMADHQDEAARGQLEKLRSDQLPDDIRKIVDDALAALR"
measurement = -1.46

[[record]]
sequence_record = "HMSVTIENQINTYFQTRDKISRDELVALIKKDFANWTDNTINIYVSSLQKRGIIHSLSRGMYALGN"
measurement = -4.25

[[record]]
sequence_record = "HMKVRDTQYIIEAAISKNVIRKSKNIYYYGTDIIGRSLEDAIASLNDKKNQDIKMTILQEIES"
measurement = -2.14

[[record]]
sequence_record = "HMKVTGITDDILQRLKQQKGYLMLSDKSSPDEIYAAFGVSKKVFKQAIGTLFKQRQIIIEEQGIRLAN"
measurement = -1.3

[[record]]
sequence_record = "HMSRKERERSQHRRDILAAGEKIFAQKGYFNATIEEIAREAEFSVGTIYNFFSNKETLYQEIIRSI"
measurement = -0.418

[[record]]
sequence_record = "HMSDYVLLYSGLNTSDTTFLAYSFQEKGIRYKMPNPDEIEVRVQDVDQARRIAAGAQLGGQVS"
measurement = -0.536

[[record]]
sequence_record = "HMQYPSSLDSRAKQSLYDNLERNEILALALDNVIQSNKLDGWRDGGIKERKLRLAINNLLKNDEHTDNIME"
measurement = -0.0341

[[record]]
sequence_record = "HMETLYGQIVNDIMEKIESNAWPVGYVIPTESDFQKQYGVSRATVRNAILKLAHLGYLVRKKGSGTYVTRP"
measurement = -1.25


stdin: Tell me the measured soluble fraction (log2) of HMESWEDSNIANEFKSTIKIAEKRLAEGGDHPELLEKLEALKQAIINENQTEASKLDDQVNDILFDMDD , please.
stdout: 0.602

stdin: Tell me the measured soluble fraction (log2) of HMKQQFTREQIIELMYKAYKKHKKKLNRVEIKKEKALPSYVTIGRYLNETSIKKIWEIVLSEKE , please.
stdout: -1.22

stdin: Tell me the measured soluble fraction (log2) of HMPEVYSFEVNEGAAGKRLDIFLSGEIEGLTRSFIQKLISEGMATVNQEPPRASYRVKTRDLVELQIPDPE , please.
stdout: -0.334

stdin: Tell me the measured soluble fraction (log2) of HMLTGESDNVEKSINKLGTENLALADQTNMGFKGTFINSGHGMAIVVKTGMQTELGKIASMIQIA , please.
stdout: 0.218

stdin: Tell me the measured soluble fraction (log2) of HMQKIYTIARGDTLSHIVAGTLKQQGIAYTTGELYRLVNVVAQYNDILNPNRIYTGHQLDLTPLYSED , please.
stdout: -0.15

stdin: Tell me the measured soluble fraction (log2) of HMSVFGMEIGKTTEAEAGRMYRLNKEQLNPYSGGYQYSVNPKAIDFSGLEQVTLIFDEKKVLVYVQAV , please.
stdout: 0.144

stdin: Tell me the measured soluble fraction (log2) of HMNTKDRIKQLAAQRKITIAELERKLHIANGTIGKWDKQNPSIEPLKKLADYFGVTTDYLLGRT , please.
stdout: -0.381

stdin: Tell me the measured soluble fraction (log2) of HMDLEMLEVEDTIKDLLSQHQKINAIKYYRNYMSEQLNVDMGLRQAKDTIDAIGRGATVDLSVGY , please.
stdout: -0.0747

stdin: Tell me the measured soluble fraction (log2) of HMAFDGIVLKNITNALKELINGKINKIQQSSKDNLTLSIYNQKSYNLYIDISANNYRVNLTTHSE , please.
stdout: 0.126

stdin: Tell me the measured soluble fraction (log2) of HMLAPLAEMRGDTLDRLEKAVLELFSSRDFHEVSLQDVARRANVSLQTIYKYFGSKEALVYTMLDTLLGR , please.
stdout: -0.416
